study.target: human α4β7 integrin (Homo sapiens, UniProt P13612+P26010)
Construct: expressed in transfected cells; host or cells: K562 cells, stably transfected
Sequence (P13612 34-1032): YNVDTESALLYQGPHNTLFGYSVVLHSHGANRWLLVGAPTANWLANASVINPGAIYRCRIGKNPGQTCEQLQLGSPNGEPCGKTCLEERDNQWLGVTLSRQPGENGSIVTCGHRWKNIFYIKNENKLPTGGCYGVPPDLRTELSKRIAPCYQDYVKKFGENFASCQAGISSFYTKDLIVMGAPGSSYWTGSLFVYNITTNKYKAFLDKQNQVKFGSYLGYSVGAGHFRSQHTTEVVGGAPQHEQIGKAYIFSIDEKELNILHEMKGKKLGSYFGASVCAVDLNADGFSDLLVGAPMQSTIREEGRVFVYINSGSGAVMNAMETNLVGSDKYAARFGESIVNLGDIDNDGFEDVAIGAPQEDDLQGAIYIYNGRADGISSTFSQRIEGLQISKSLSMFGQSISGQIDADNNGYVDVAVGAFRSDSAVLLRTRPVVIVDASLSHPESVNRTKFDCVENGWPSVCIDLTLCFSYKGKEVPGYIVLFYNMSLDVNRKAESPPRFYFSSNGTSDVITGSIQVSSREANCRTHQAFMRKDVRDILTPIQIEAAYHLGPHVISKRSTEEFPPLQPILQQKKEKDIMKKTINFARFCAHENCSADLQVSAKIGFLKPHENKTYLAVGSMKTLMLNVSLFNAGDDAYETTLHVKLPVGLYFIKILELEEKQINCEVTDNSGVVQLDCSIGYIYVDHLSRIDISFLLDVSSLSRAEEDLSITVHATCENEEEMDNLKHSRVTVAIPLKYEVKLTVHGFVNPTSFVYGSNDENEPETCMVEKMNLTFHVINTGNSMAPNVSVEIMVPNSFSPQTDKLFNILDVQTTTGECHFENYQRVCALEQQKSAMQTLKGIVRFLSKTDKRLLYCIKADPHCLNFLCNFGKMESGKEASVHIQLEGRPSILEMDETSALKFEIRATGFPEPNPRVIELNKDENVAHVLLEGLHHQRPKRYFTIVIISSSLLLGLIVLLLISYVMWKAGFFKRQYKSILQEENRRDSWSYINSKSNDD
Sequence (P26010 20-798): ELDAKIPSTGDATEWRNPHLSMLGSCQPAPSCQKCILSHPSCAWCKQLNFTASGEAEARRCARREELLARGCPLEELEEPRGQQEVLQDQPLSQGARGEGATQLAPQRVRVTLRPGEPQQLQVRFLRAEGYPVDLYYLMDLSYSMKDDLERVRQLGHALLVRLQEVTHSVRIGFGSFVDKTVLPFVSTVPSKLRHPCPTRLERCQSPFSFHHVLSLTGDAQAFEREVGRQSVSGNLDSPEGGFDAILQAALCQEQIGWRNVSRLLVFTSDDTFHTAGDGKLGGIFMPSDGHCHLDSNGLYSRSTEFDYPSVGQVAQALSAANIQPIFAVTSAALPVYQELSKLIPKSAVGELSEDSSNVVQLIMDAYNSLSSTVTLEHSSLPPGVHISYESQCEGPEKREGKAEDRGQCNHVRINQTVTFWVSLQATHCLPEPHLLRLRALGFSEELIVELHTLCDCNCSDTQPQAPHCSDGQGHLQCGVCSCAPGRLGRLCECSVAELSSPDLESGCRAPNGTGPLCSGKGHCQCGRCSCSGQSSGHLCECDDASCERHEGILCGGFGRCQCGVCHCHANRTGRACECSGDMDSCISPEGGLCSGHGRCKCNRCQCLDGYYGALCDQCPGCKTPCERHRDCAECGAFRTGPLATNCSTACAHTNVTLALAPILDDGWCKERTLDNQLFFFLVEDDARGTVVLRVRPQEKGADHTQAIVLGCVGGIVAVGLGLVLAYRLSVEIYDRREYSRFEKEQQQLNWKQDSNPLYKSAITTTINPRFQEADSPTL
test.method.notes: α4β7-K562 Cell Adhesion Assay (α4β7 Mediated Adhesion/MAdCAM-1)
Format: cell-based
measurement.setup: α4β7-K562 cell adhesion to hMAdCAM-1; read-out: α4β7 IC50
reported.endpoint: IC50 (nM)
The response must be a number in nM with no trailing unit.

Reported IC50, molecule Cn1ncc(-n2nccc2-c2cccs2)c(-c2ccc(C[C@H](NC(=O)c3c(Cl)cccc3Cl)C(=O)O)cc2)c1=O : ____
261

Reported IC50, molecule COc1cnn(C(C)(C)C)c(=O)c1-c1ccc(C[C@H](NC(=O)c2c(Cl)cccc2Cl)C(=O)O)cc1 : ____
42

Reported IC50, molecule COc1cnn(C)c(=O)c1-c1ccc(C[C@H](NC(=O)c2ccc(C(=O)O)cc2)C(=O)O)cc1 : ____
200

Reported IC50, molecule O=C(N[C@@H](Cc1ccc(-c2c(OC3CCC3)cnn(CCO)c2=O)cc1)C(=O)O)c1c(Cl)cccc1Cl : ____
17
